Items are presented alongside their recorded AUC.
Experiment: Pharmacokinetics experiment, intragastric single dose
Type: in vivo
Settings: mouse, plasma; male mice, oral administration dosage 5 mg/Kg; read-out: Plasma exposure AUC
Procedure: Pharmacokinetics of the compound of the disclosure was determined. The following method was used to determine the pharmacokinetic parameters of the compound of the disclosure. Healthy male adult mice were used in the study. Each group was intragastrically administered with a single dose of 5-100 mg/kg. […] Blood samples were collected at different time points after administration and the compound content in plasma was determined by LC-MS/MS. […]
Endpoint Label: AUC (µM·h)

{"columns": ["Compound", "Value Observed"],
 "data": [
  ["Nc1nccc(Sc2cnc(N3CCC4(CC3)Cc3cccnc3[C@H]4N)n3ccnc23)c1Cl [Compound 10]", 48],
  ["Nc1nccc(Sc2cnc(N3CCC4(CC3)Cc3ccncc3[C@H]4N)n3cnnc23)c1Cl [Compound 7]", 43],
  ["Nc1nccc(Sc2cnc(N3CCC4(CC3)Cc3ccccc3[C@H]4N)n3ccnc23)c1Cl [Compound 4]", 29],
  ["Nc1nccc(Sc2cnc(N3CCC4(CC3)Cc3ncccc3[C@H]4N)n3ccnc23)c1Cl [Compound 6]", 35],
  ["Nc1nccc(Sc2cnc(N3CCC4(CC3)Cc3nccnc3[C@H]4N)n3ccnc23)c1Cl [Compound 18]", 40]
]}
